tested on: Rattus norvegicus; assay: AUC (0 to t) in Sprague-Dawley rat plasma at 1 mg/kg, iv after 8 hrs; type: ADME, organism-based; design: time < 8 hr, dose 1 mg/kg, route intravenous; conditions: in vivo
endpoint.label: AUCt

>>> reported("C=CC(=O)N1CCC[C@@H](n2nc(-c3ccc(OCc4ccccn4)c(Cl)c3)c3c(N)ncnc32)C1")
"404 to 2340 ng/mL/h"

----------
molecular target: Insulin receptor (Homo sapiens); test: Inhibition of Tel-fused INSR (unknown origin) expressed in mouse BAF3 cells assessed as growth inhibition after 72 hrs by CellTiter-Glo assay; assay type: cell-based
endpoint.label: GI50 (µM)

>>> reported("CCOc1cc2ncc(C#N)c(Nc3ccc(OCc4ccccn4)c(Cl)c3)c2cc1NC(=O)/C=C/CN(C)C [NERATINIB]")
0.29
>>> reported("C=CC(=O)Nc1cccc(Nc2nc(Nc3ccc(N4CCN(C(C)=O)CC4)cc3OC)ncc2C(F)(F)F)c1 [ROCILETINIB]")
0.19
>>> reported("C=CC(=O)N1CCC[C@@H](n2nc(-c3ccc(OCc4ccccn4)c(Cl)c3)c3c(N)ncnc32)C1")
3.5
>>> reported("C=CC(=O)Nc1cccc(Oc2nc(Nc3ccc(N4CCN(C)CC4)cc3OC)ncc2Cl)c1")
1.2
>>> reported("CN(C)C/C=C/C(=O)Nc1cc2c(Nc3ccc(F)c(Cl)c3)ncnc2cc1OC1CCOC1 (stereo unspecified)")
1.2
>>> reported("C=CC(=O)Nc1cc(Nc2nccc(-c3cn(C)c4ccccc34)n2)c(OC)cc1N(C)CCN(C)C [OSIMERTINIB]")
0.5

----------
target: UniProt P08069; assay: Inhibition of Tel-fused IGF1R (unknown origin) expressed in mouse BAF3 cells assessed as growth inhibition after 72 hrs by CellTiter-Glo assay; format: cell-based
Sequence (P08069 31-736 limits assumed): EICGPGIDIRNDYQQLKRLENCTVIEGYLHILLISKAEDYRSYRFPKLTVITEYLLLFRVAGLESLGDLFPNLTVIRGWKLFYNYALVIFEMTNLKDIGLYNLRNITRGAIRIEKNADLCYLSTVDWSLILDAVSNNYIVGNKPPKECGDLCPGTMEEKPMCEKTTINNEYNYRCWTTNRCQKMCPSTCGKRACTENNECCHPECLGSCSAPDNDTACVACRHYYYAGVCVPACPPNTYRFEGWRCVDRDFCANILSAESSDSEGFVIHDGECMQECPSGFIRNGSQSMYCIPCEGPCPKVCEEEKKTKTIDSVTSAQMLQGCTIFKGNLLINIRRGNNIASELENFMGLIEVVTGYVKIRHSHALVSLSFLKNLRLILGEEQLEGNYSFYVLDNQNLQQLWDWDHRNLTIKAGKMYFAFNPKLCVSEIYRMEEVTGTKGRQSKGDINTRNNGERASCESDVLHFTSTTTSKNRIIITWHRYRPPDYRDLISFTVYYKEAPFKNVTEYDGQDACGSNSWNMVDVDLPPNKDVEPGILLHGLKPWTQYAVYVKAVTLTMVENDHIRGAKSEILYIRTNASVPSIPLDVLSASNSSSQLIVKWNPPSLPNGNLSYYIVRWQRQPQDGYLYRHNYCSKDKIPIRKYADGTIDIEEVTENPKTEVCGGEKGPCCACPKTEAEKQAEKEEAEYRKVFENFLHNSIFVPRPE
Sequence (P08069 741-1367 limits assumed): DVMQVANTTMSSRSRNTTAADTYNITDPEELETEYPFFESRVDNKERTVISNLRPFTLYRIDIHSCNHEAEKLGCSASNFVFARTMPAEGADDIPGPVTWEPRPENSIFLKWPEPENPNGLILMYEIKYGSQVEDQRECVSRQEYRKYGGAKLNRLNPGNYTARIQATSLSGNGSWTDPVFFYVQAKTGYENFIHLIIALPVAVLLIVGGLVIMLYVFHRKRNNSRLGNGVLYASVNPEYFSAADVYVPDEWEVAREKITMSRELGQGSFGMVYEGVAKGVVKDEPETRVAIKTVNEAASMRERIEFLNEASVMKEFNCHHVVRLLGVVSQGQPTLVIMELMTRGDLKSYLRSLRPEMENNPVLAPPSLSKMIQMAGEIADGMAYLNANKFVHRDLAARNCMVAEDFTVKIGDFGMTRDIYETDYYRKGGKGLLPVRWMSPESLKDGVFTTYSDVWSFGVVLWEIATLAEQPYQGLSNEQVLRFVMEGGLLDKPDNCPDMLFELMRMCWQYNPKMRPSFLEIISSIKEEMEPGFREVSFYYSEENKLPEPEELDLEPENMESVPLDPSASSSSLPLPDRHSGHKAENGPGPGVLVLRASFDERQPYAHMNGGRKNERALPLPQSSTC
Listing of recorded GI50 by entry.
endpoint.label: GI50 (nM)

>>> reported("CN(C)C/C=C/C(=O)Nc1cc2c(Nc3ccc(F)c(Cl)c3)ncnc2cc1OC1CCOC1 (stereo unspecified)")
1200
>>> reported("C=CC(=O)Nc1cccc(Nc2nc(Nc3ccc(N4CCN(C(C)=O)CC4)cc3OC)ncc2C(F)(F)F)c1")
360
>>> reported("CCOc1cc2ncc(C#N)c(Nc3ccc(OCc4ccccn4)c(Cl)c3)c2cc1NC(=O)/C=C/CN(C)C")
190
>>> reported("C=CC(=O)Nc1cccc(Oc2nc(Nc3ccc(N4CCN(C)CC4)cc3OC)ncc2Cl)c1")
1300
>>> reported("C=CC(=O)Nc1cc(Nc2nccc(-c3cn(C)c4ccccc34)n2)c(OC)cc1N(C)CCN(C)C")
560

Cited source for all entries: ChEMBL document CHEMBL4049404
